Each item that follows carries a reported inhibition.
System: Candida albicans
Protocol: Inhibition of Candida albicans AHAS catalytic subunit at 10 uM using pyruvate as substrate measured after 30 mins by colorimetric method relative to control
Enter your answer as a number in %; do not include the unit.

Before answering, review these 2 worked examples.
COc1nc(OC)nc(Sc2ccc(C#N)cc2F)n1 = 55.7
COc1nc(OC)nc(Sc2ccc(C(=O)O)c(C(F)(F)F)c2)n1 = 8.6

Would you mind telling me what inhibition value was observed for COc1nc(OC)nc(Oc2cccc(I)c2)n1 ?
0

Would you mind telling me what inhibition value was observed for COc1nc(OC)nc(Sc2ccc(C(=O)O)cc2Cl)n1 ?
25.6

Would you mind telling me what inhibition value was observed for COc1nc(OC)nc(Sc2ccc(Br)cc2C#N)n1 ?
37.4

Would you mind telling me what inhibition value was observed for COc1nc(OC)nc(Sc2ccc(Br)cc2C(=O)O)n1 ?
59.3

Would you mind telling me what inhibition value was observed for COc1nc(OC)nc(Sc2ccc(C#N)cc2Cl)n1 ?
65.4
